target: hOGT (312-1031) (Homo sapiens, UniProt O15294, H568F); experiment: surface plasmon resonance, […] equilibrium fit
Sequence (O15294 322-1041 H568F): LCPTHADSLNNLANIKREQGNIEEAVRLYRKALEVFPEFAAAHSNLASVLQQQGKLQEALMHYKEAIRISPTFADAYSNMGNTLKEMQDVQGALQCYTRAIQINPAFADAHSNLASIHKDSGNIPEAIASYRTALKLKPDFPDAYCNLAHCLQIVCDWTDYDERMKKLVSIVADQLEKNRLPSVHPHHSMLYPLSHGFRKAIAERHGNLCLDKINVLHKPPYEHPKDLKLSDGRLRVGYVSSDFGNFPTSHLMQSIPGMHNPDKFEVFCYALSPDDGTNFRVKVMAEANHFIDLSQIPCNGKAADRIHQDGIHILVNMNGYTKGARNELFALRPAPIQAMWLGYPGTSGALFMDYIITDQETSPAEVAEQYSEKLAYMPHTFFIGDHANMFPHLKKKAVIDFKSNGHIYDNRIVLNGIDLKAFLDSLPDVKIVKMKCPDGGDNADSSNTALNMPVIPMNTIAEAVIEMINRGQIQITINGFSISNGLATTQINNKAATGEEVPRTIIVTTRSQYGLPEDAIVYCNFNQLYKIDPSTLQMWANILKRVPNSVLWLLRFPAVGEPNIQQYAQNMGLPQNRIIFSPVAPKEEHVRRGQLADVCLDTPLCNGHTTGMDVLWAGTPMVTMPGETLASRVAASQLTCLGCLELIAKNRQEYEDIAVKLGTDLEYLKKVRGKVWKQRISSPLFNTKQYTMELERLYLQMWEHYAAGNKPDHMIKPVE
MEASURED QUANTITY: pKd
pKd (log units): -log10 of the concentration in mol/L.

Ask: Output pKd of O=c1ccn([C@@H]2O[C@H](COP(=O)(O)OP(=O)(O)O)[C@@H](O)[C@H]2O)c(=O)[nH]1
Reply: 6.15

Ask: State its pKd: CC(=O)N[C@H]1[C@@H](OP(=O)(O)OP(=O)(O)OC[C@H]2O[C@@H](n3ccc(=O)[nH]c3=O)[C@H](O)[C@@H]2O)O[C@H](CO)[C@@H](O)[C@@H]1O
Reply: 4.37
